# Tested on: HOP-62 multicell spheroids with HUVEC/MSC, viability
# measurement.description: Anticancer human tumor HOP-62 cell line growth inhibition [KRAS2];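 note: viability read after a week of compound exposure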
# condition.notes: curve of first compound; second compound 0.0316 µM

compound	IC50
Cn1ncnc1[C@H]1c2n[nH]c(=O)c3cc(F)cc(c23)N[C@@H]1c1ccc(F)cc1 + C=CC(=O)N1CCN(c2nc(OCC3CCCN3C)nc3c2CCN(c2cccc4cccc(C)c24)C3)CC1CC#N	> 0.1 µM
COc1cc(Nc2ncc3c(n2)-c2ccc(Cl)cc2C(c2c(F)cccc2OC)=NC3)ccc1C(=O)O + C=CC(=O)N1CCN(c2nc(OCC3CCCN3C)nc3c2CCN(c2cccc4cccc(C)c24)C3)CC1CC#N	< 0.0316 µM
CC(=O)OC12COC1CC(O)C1(C)C(=O)C(O)C3=C(C)C(OC(=O)C(O)C(NC(=O)OC(C)(C)C)c4ccccc4)CC(O)(C(OC(=O)c4ccccc4)C21)C3(C)C (stereo not drawn) + C=CC(=O)N1CCN(c2nc(OCC3CCCN3C)nc3c2CCN(c2cccc4cccc(C)c24)C3)CC1CC#N	< 0.01 µM
